Tested on: Wolbachia pipientis
Assay Remarks: Anti-Wolbachia Cell-Based Screen
Type: functional
Parameters: scale not given: in the data most compounds retested in dose-response had high values
Settings: 5 µM
In all, about 48,000 compounds went through this assay and about 13,000 (27%) showed an effect of 50% or more. The list shows a part of the results.
Reported Percent Effect values for the following compounds.

{"Compound": "CCCNC(=O)c1nc2c(o1)CN(c1ncccn1)C2", "Percent Effect / %": -1.924}
{"Compound": "O=C(NCCN1CCCC1)c1nc2c(o1)CN(c1ncccn1)C2", "Percent Effect / %": -7.93}
{"Compound": "Cn1c(C(F)(F)F)nn(CCNC(=O)CSCc2ccccc2)c1=O", "Percent Effect / %": 0.8754}
{"Compound": "CCCNC(=O)c1cc2c(s1)CCN2c1ncccn1", "Percent Effect / %": 122.6}
{"Compound": "Cl.FC(F)CNc1cnc(C2CCCN2)cn1 (stereo unspecified)", "Percent Effect / %": 111.3}
{"Compound": "CCc1ccc2c(C3CN(CC4CCC4)C3)ncn2c1.O=C(O)C(F)(F)F", "Percent Effect / %": 1.201}
